measurement target: SMARCA4 (Homo sapiens, UniProt P51532)
Construct: SMARCA2 and SMARCA4 protein degradation in MV4-11 cells; endogenous in cells; host or cells: MV4-11
Sequence (P51532 whole entry): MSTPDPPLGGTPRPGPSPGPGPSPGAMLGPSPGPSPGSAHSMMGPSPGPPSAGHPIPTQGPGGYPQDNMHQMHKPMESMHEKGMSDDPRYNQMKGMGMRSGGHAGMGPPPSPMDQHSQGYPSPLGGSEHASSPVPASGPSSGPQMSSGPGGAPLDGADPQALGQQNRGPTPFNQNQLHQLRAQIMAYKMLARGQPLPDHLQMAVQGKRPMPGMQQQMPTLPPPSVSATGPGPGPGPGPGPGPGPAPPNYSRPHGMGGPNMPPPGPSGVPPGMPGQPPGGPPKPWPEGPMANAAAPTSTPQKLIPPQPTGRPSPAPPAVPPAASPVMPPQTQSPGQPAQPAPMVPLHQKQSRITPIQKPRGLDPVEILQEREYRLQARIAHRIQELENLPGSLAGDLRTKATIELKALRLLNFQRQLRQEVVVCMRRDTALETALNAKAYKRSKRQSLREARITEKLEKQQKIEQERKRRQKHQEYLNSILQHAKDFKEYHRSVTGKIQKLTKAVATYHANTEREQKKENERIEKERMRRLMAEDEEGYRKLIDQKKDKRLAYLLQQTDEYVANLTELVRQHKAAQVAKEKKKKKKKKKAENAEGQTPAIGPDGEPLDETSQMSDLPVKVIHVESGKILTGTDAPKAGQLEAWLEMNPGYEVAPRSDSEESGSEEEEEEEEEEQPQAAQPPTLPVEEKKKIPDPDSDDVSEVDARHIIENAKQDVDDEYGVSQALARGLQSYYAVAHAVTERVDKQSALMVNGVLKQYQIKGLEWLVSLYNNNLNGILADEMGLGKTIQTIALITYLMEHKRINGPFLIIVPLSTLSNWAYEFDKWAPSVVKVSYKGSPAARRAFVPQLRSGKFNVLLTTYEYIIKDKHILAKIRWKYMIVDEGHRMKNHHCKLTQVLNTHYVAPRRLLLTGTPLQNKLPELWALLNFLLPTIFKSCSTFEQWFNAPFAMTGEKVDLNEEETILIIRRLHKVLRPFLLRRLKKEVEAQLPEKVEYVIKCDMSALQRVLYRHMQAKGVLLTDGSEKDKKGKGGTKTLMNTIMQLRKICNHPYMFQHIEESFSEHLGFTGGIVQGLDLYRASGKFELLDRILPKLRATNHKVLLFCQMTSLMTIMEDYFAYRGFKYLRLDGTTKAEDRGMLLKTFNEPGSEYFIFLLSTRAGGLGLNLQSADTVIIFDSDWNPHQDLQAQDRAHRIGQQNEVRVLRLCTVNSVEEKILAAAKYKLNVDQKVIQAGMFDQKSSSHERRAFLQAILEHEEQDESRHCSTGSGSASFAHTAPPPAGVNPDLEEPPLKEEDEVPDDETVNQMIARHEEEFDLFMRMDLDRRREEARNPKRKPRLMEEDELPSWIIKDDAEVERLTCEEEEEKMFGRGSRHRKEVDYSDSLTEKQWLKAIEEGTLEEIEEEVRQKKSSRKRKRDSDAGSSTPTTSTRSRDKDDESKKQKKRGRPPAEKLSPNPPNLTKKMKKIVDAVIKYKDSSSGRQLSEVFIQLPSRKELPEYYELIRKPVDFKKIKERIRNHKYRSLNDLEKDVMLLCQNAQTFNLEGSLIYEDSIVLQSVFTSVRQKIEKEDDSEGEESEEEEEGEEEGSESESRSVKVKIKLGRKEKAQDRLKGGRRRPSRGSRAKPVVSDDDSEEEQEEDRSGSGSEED
assay summary: SMARCA4 Western blot MV4-11 degradation
Format: cell-based
study conditions: MV4-11 cells, 24 h, read-out: SMARCA4 WB MV411 degradation 24 h: Average external-Abs DC50
reported metric: DC50

In: Can you look up the measured DC50 of Cc1ncsc1-c1ccc(CNC(=O)[C@@H]2C[C@@H](O)CN2C(=O)[C@@H](NC(=O)CC2CC(N3CCC(c4cnc(N5C6CCC5CN(c5cc(-c7ccccc7O)nnc5N)C6)nc4)CC3)C2)C(C)(C)C)cc1 (stereo partly drawn) for me?
Out: > 1000 nM

In: Can you look up the measured DC50 of Cc1ncsc1-c1ccc(CNC(=O)[C@@H]2C[C@@H](O)CN2C(=O)[C@@H](NC(=O)CN2CCC(c3cnc(N4C5CCC4CN(c4cc(-c6ccccc6O)nnc4N)C5)nc3)CC2)C(C)(C)C)c(C(F)(F)F)c1 for me?
Out: > 1000 nM

In: Can you look up the measured DC50 of NCC#Cc1nccc(N2C3CCC2CN(c2cc(-c4ccccc4O)nnc2N)C3)n1 for me?
Out: > 1000 nM
